- test summary: Quantitative High-Throughput drug screen in 47 multiple myeloma cell lines against the NCATS MIPE library collection: UTMC2_PLB cell viability assay (AID 1919868); also: potency is read from the fitted curve at half-maximal effect; nearly all actives have a fitted effect of over 55% in size
- run parameters: CellTiter-Glo ATP luminescence, 48 h
- Text: PI: Beverly A. Mock Ph.D. Laboratory of Cancer Biology and Genetics, Center for Cancer Research, National Cancer Institute, National Institute of Health, Bethesda, Maryland […] 5; Detector; 425V; Luminescence; Viewlux PerkinElmer. […] 1. […] Briefly, the corresponding myeloma cell lines were screened in 1,536-well plates with 500 cells, 5-uL per well for inhibition of cell viability (assessed by measuring ATP levels with CellTiterGlo). […]
Records with an inconclusive call do not appear. Active and inactive are the calls of the source. Calls follow the shape of the dose curve; as a rule, active = well fitted cell-killing curve with a large enough effect; inconclusive = small, poorly fitted or top-dose-only effect, or effect the other way; inactive = no such curve, though single readings can be large or run the other way.
What Potency was measured for each of the following?

Ask | What value of Potency has been reported for the following compound? CC1=C(C(=O)Nc2cc3cn[nH]c3cc2F)C(c2ccc(Cl)cc2F)N=C(c2ccnc(Cl)c2)N1 (stereo not given)
Reply | 3.72 µM (active)

Ask | What value of Potency has been reported for the following compound? CC(C)N1[N]C(=C2C=c3cc(O)ccc3=N2)c2c(N)ncnc21
Reply | 0.187 µM (active)

Ask | What value of Potency has been reported for the following compound? CN(C)CC(=O)N1CCC(c2ccc(NC(=O)c3ncc(C#N)[nH]3)c(C3=CCCCC3)c2)CC1
Reply | 18.7 µM (active)

Ask | What value of Potency has been reported for the following compound? O=C(Nc1cccc(Nc2ncc(Br)c(NCCc3cnc[nH]3)n2)c1)N1CCCC1
Reply | 0.662 µM (active)

Ask | What value of Potency has been reported for the following compound? C=C1C(=O)O[C@H]2[C@@H]1CCC(C)=CCC[C@@]1(C)O[C@@H]21
Reply | 4.69 µM (active)

meta.source: PubChem BioAssay (NCATS)
